# Tgt: IDO1 (Homo sapiens, UniProt P14902)
# Construct: HeLa cells were treated with a test compound in the presence of IFNγ, which induces IDO1 expression; endogenous in cells
# Sequence (P14902 whole entry): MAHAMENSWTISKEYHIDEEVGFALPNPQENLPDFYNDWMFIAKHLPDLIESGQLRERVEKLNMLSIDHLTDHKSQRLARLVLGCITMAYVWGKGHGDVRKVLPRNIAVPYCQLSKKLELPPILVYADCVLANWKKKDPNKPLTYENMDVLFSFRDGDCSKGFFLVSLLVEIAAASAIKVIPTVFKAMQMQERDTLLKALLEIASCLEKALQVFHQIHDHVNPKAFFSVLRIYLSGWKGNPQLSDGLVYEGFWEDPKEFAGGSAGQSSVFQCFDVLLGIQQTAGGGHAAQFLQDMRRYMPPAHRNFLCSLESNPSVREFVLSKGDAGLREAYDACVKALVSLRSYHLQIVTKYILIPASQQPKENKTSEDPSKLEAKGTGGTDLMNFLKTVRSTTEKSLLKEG
# Test summary: Cell-based (HeLa) assay for measurement of IDO1 inhibition (kynurenine levels in supernatant after IFNγ induction)
# Assay setup: H1-HeLa cells, IFNγ-induced IDO1, 48 hour incubation, kynurenine absorbance at 480 nm; geometric mean of a minimum of four determinations
Measure: EC50 (nM)

[P] Cc1ncc(-c2cccn3c(-c4cccc(F)c4F)nc(Br)c23)cc1C(=O)Nc1ccc(F)cc1
[Q] Cc1ncc(-c2cccn3c(-c4cccc(Cl)c4Cl)ncc23)cc1C(=O)Nc1ccc(F)cc1
stdin: Of P and Q , which one carries the higher reported EC50? Indicate which entry you chose by stating its label.
stdout: P
(P: 273 nM, Q: 30.8 nM)

[1] Cc1ncc(-c2cccn3c(-c4cccc(F)c4F)ncc23)cc1C(=O)Nc1cccc(OC(F)(F)F)c1
[2] Cc1ccc(-c2cccn3c(-c4cnnn4C)ncc23)cc1C(=O)Nc1ccc(F)cc1
stdin: Task for the reader: decide whether 1 or 2 has the larger EC50. Bench note: the answer is the label of the chosen record.
stdout: 2
(2: 2190 nM, 1: 380 nM)

[P] O=C(Nc1ccc(F)cc1)c1nc(-c2cccn3c(-c4cccc(F)c4F)ncc23)ccc1Cl
[Q] Cc1ncc(-c2cccn3c(-c4c(F)cccc4F)ncc23)cc1C(=O)Nc1ccc(F)cc1
[R] Cc1ncc(-c2cccn3c(-c4cccc(F)c4Cl)ncc23)cc1C(=O)Nc1ccc(F)cc1
[S] O=C(Nc1ccc(F)cc1)c1cc(-c2cccn3c(-c4cccc(F)c4)ncc23)ccc1C(F)(F)F
stdin: Order field: EC50 | Direction: descending (largest first) # the answer lists labels in the order requested
stdout: Q, P, S, R
